- test-details: Clearance in male ICR mouse at 10 mg/kg, po and 2 mg/kg, iv measured upto 24 hrs
- Type: ADME, organism-based
- test-settings: in vivo
assay-metric: clearance
Kindly report the value followed by its unit.

Value lookup for clearance; key = "[2H]C([2H])([2H])NC1=NC(=O)[C@]2(CCc3ncccc32)c2cc(C(C)(F)F)ccc21" 9.12 mL/min/kg

Value lookup for clearance; key = "[2H]C([2H])([2H])NC1=NC(=O)[C@]2(CCc3ncccc32)c2cc(C3CC3)c(F)cc21" 11.4 mL/min/kg

Value lookup for clearance; key = "[2H]C([2H])([2H])NC1=NC(=O)[C@]2(CCc3ncccc32)c2cc(C(F)(F)F)ccc21" 7.98 mL/min/kg

Value lookup for clearance; key = "[2H]C([2H])([2H])NC1=NC(=O)[C@]2(CCc3ncccc32)c2cc(C(C)(F)F)c(F)cc21" 11.2 mL/min/kg

Value lookup for clearance; key = [2H]C([2H])([2H])NC1=NC(=O)C2(CCc3ncccc32)c2cc(C(F)(F)F)ccc21 (racemic) 5.13 mL/min/kg

Value lookup for clearance; key = CNC1=NC(=O)C2(CCc3ncccc32)c2cc(C(F)(F)F)ccc21 (racemic) 6.77 mL/min/kg

Value lookup for clearance; key = NC1=NC(=O)C2(CCc3ncccc32)c2cc(C(F)(F)F)ccc21 (racemic) 8.48 mL/min/kg

Value lookup for clearance; key = "[2H]C([2H])([2H])NC1=NC(=O)[C@]2(CCc3ncccc32)c2cc(C3CC3)ccc21" 13.1 mL/min/kg

Value lookup for clearance; key = CNC1=NC(=O)C2(CCc3ccccc32)c2nc(C(F)(F)F)ccc21 (stereo not given) 29.3 mL/min/kg

Value lookup for clearance; key = CNC1=NC(=O)C2(CCc3ncccc32)c2nc(C(F)(F)F)ccc21 (stereo not given) 9.06 mL/min/kg
